test-description: Hemolytic assay
Format: cell-based, rat
study-conditions: rat
Non-standard residues stand in square brackets, D forms with d. Residues, ends and D or L forms follow the SMILES beside them. Orn = NCCC[C@H](N)C(=O)O
readout-label: hemolysis at 45 min, 256 μg/mL (%)
Report only the number, with the unit % understood.

Lookup: Which measured hemolysis at 45 min, 256 μg/mL value corresponds to CC(=O)N[C@@H](Cc1c[nH]c2ccccc12)C(=O)N[C@@H](CCCN)C(=O)N[C@@H](CCCN)C(=O)N[C@@H](CC(C)C)C(=O)N[C@@H](CCCN)C(=O)N[C@@H](CCCN)C(=O)N[C@@H](CC(C)C)C(=O)N[C@@H](CC(C)C)C(=O)N[C@@H](CCCN)C(=O)N[C@@H](CCCN)C(=O)N[C@@H](CC(C)C)C(=O)N[C@@H](CCCN)C(=O)N[C@@H](CCCN)C(=O)N[C@@H](CC(C)C)C(N)=O [pepO2, Ac-WOOLOOLLOOLOOL-NH2] (Ac-W[Orn][Orn]L[Orn][Orn]LL[Orn][Orn]L[Orn][Orn]L-NH2) ?
Found: 0.23

Hey, just so you know, these numbers are from paper PMC8250858.
